# Test system: Vero E6 infected with SARS-CoV-2
# experimentalDetails: inhibition of SARS-CoV-2 cytopathic effect; higher = more antiviral protection, active = above 15
# runParameters: 100 nM; 48 h
testReadout: inhibition of SARS-CoV-2 cytopathic effect (%)

[[record]]
compound = "O=C(CCCCCCCn1cc(-c2cccnc2)nn1)Nc1ccccc1-c1ccccc1"
reportedmeasurement = -14.1

[[record]]
compound = "COC(=O)C1=C(C)NC(C)=C(C(=O)OCCCN2CCC(c3ccccc3)(c3ccccc3)CC2)[C@@H]1c1cccc([N+](=O)[O-])c1"
reportedmeasurement = 2.09

[[record]]
compound = "O=C(CCCl)NCc1ccccc1 [beclamide]"
reportedmeasurement = 0.49

[[record]]
compound = "COCCCOc1cc(C[C@@H](C[C@H](N)[C@@H](O)C[C@H](C(=O)NCC(C)(C)C(N)=O)C(C)C)C(C)C)ccc1OC [aliskiren-hemifumarate]"
reportedmeasurement = -1.58

[[record]]
compound = "CC(C)(C)c1cc(/C=C(\\C#N)C(N)=S)cc(C(C)(C)C)c1O"
reportedmeasurement = -1.98

[[record]]
compound = "COC(=O)[C@H](CC(C)C)NC(=O)c1ccc(NC[C@@H](N)CS)cc1-c1cccc2ccccc12"
reportedmeasurement = -0.9

[[record]]
compound = "COc1cc([C@@H]2c3cc4c(cc3[C@@H](O[C@@H]3O[C@@H]5CO[C@@H](C)O[C@H]5[C@H](O)[C@H]3O)[C@H]3COC(=O)[C@H]23)OCO4)cc(OC)c1O [etoposide]"
reportedmeasurement = -0.58

